Molecular target: SARS-CoV-2 Spike (SARS-CoV-2), P0DTC2
Experiment: inhibitor screening kit; SARS-CoV-2 Spike:ACE2 (Example 3 assay)
assayMetric: IC50

In: Look at this binder and give its reported IC50. TAWDLGKGDFRI (modifications not checked) [Seq29 (LNCOV-35)]
Out: > 10 µM
